molecular target: B-cat-Halo (NanoBRET construct) (UniProt P35222); experiment: NanoBRET Abs IC50; Bcat-Halo/TCF4-Luc in HEK293 cells, competitor TCF4-Luc
Sequence (P35222 whole entry): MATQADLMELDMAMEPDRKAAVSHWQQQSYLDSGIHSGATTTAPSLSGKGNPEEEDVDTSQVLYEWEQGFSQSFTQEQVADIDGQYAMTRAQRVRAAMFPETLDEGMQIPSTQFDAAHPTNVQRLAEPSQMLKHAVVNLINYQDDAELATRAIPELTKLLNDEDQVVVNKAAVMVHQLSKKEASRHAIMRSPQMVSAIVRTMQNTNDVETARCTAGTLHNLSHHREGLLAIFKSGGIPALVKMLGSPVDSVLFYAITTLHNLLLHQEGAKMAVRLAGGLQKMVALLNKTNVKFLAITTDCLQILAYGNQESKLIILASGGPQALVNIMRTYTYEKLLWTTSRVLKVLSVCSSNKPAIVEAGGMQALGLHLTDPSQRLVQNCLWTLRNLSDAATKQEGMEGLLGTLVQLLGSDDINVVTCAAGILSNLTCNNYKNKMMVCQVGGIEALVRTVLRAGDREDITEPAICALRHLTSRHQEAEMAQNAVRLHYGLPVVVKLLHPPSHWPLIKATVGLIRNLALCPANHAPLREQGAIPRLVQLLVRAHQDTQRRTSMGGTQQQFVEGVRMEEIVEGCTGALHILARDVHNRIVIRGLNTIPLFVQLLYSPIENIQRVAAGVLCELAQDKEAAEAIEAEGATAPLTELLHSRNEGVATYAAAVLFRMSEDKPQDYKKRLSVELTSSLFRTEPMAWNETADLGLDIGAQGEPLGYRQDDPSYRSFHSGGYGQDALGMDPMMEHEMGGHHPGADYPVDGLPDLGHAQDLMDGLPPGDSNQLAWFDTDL
pIC50: −log10 of the molar value. Starred links: 1 amine or outer side, 2 acyl side, 3 side chain; linkers in the order of their positions; H or OH if unused. Positions of bridges follow the written chain, without caps; N, C: chain ends. Non-standard residues stand in square brackets, D forms with d. Primed or numbered codes have the meaning given here. PyrS2″ = (S)-3-amino-1-((pent-4-en-1-yloxy)carbonyl)pyrrolidine-3-carboxylic acid (stapling residue), C=CCCCOC(=O)N1CC[C@@](N[*:1])(C(=O)[*:2])C1; B5(5) = 2,2-bis(4-pentenyl)glycine, 2-amino-2-(pent-4-en-1-yl)hept-6-enoic acid (stitching residue), C=CCCCC(CCCC=C)(N[*:1])C(=O)[*:2]; PyrS2(5) = (S)-3-amino-1-((alkenyloxy)carbonyl)pyrrolidine-3-carboxylic acid, carbamate stapling residue; 2COOHF = (S)-2-(2-amino-2-carboxyethyl)benzoic acid, O=C([C@H](Cc1ccccc1C(=O)[*:3])N[*:1])[*:2]; Phe(2-Cl) = N[C@@H](Cc1ccccc1Cl)C(=O)O; Bta = N[C@@H](Cc1csc2ccccc12)C(=O)O; αAllylPro = C=CC[C@@]1(C(=O)O)CCCN1; tBuAla = CC(C)(C)C[C@H](N)C(=O)O; 3Thi = N[C@@H](Cc1ccsc1)C(=O)O; Thr(ol) = C[C@@H](O)[C@H](N)CO
value_kind: pIC50

>>> measured_result("Ac-[αAllylPro]D[tBuAla][B5(5)]D[2COOHF]AAFF[PyrS2″][Phe(2-Cl)][Bta]S-NH2 (staple 1-4, 4-11) [I-1662]")
4.92
>>> measured_result("Ac-[αAllylPro]D[tBuAla][B5(5)]D[2COOHF]AAFF[PyrS2(5)][3Thi][Bta][Thr(ol)] (staple 1-4, 4-11; also: staple isomer, later-eluting HPLC peak) [I-1669]")
4.93
